Entry source: PubChem BioAssay (NCI)

# Tested on: HOP-62 NSCLC
# method: NCI tumour cell line growth inhibition, 48 h; in the data active = GI50 below about 0.43 µM; inactive = the rest
Give one outcome, nothing more. List: True (active), False (inactive)

> print(dat)
                                   molecule  label
1  Oc1[nH]c2ccc(Cl)cc2c1/C=c1/ccc2c(c1)N=C(c1ccc(C(F)(F)F)cc1)N=2  False
2  CCc1ccc(Oc2nccc(-c3c(-c4ccc(F)cc4)ncn3C3CCNCC3)n2)cc1  False
3       O=Cc1c[nH]c2ccc(-c3csc4ccccc34)cc12  False
4  CS(=O)/C(C#N)=C\C=C\c1cccc(Cl)c1 (configuration not stated)  False
5            Cc1cc(Br)c2nsnc2c1[N+](=O)[O-]  False

Incoming: Could you please tell me the result logged for Nc1cccc2c1CN(C1CCC(=O)NC1=O)C2=O (configuration not stated) in this assay?
Outgoing: False

Incoming: Fill in: this test's call for `COc1cc2c(cc1OCc1ccccc1)N=C[C@@H]1C[C@@H](F)CN1C2=O` is ___
Outgoing: True
